Data origin, for the record: ChEMBL document CHEMBL1149315

# measured_target: Substance-K receptor (Rattus norvegicus) (UniProt P16610)
# Sequence (P16610 whole entry): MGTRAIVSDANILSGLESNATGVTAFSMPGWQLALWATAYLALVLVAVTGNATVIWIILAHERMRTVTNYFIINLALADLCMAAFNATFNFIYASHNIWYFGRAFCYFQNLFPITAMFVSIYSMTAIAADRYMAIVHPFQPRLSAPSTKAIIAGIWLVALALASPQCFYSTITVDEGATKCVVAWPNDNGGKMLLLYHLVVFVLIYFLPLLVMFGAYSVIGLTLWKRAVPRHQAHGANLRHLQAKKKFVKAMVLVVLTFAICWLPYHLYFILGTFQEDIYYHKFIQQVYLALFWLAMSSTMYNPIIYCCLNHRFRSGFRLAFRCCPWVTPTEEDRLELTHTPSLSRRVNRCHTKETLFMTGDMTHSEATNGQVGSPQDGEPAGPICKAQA
# protocol_notes: Antagonist activity at NK2 receptor in rat urinary bladder assessed as effect on beta-Ala8]NKA(4-10)-induced mechanical activity
# Type: functional
# settings: filed as antagonist
reported_metric: pKb

{"columns": ["chemical_smiles", "measured_target", "reported_metric", "test_value"],
 "data": [
  ["O=C1C[C@@H](NC(=O)CN2CCC[C@H]2CO)C(=O)NC[C@@H](Cc2ccccc2)NC(=O)[C@H](Cc2ccccc2)NC(=O)[C@H](Cc2c[nH]c3ccccc23)N1", "Substance-K receptor (Rattus norvegicus) (UniProt P16610)", "pKb", 8.9],
  ["CN1CCC(N[C@@H]2CC(=O)N[C@@H](Cc3c[nH]c4ccccc34)C(=O)N[C@@H](Cc3ccccc3)C(=O)N[C@H](Cc3ccccc3)CNC2=O)CC1", "Substance-K receptor (Rattus norvegicus) (UniProt P16610)", "pKb", 9],
  ["O=C1C[C@@H](N2CCC(N3CCOCC3)CC2)C(=O)NC[C@@H](Cc2ccccc2)NC(=O)[C@H](Cc2ccccc2)NC(=O)[C@H](Cc2c[nH]c3ccccc23)N1", "Substance-K receptor (Rattus norvegicus) (UniProt P16610)", "pKb", 8.9]
]}
